All figures here come from patent US20100022559A1.

Test: logP determination by HPLC on a reversed-phase column (C 18), EEC Directive 79/831 Annex V.A8
Format: physicochemical
Conditions: method marker [b]; isomer A / isomer B / isomer mixture as noted in the cell
Quick reference: logP of the listed items.

Example results:
- MOLECULE: "CC(=NOCON=C(C)c1cccc(C)n1)c1cccc(C)n1"
  logP: "2.39^[b]"
- MOLECULE: "CC(=NOCCON=C(C)c1sc(C)nc1C)c1sc(C)nc1C"
  logP: "2.70^[b]"
- MOLECULE: "CC(=NOCCON=C(C)c1ncc(Cl)cc1Cl)c1ncc(Cl)cc1Cl"
  logP: "5.39^[b]"
- MOLECULE: "CC(=NOCCCCCON=C(C)c1cccc(C)n1)c1cccc(C)n1"
  logP: "3.85^[b]"
- MOLECULE: "C=C(CON=C(C)c1cccc(C)n1)CON=C(C)c1ccc(C)c(C)n1"
  logP: "3.10^[b]"
- MOLECULE: "C=C(CON=C(C)c1cc(C)cc(C)n1)CON=C(C)c1cc(C)cc(C)n1"
  logP: "1.98^[b]"

Look up logP of COc1ccc(C)nc1C(C)=NOCC(C)CON=C(C)c1nc(C)ccc1OC (stereo not drawn) and report it.
2.04^[b]

Look up logP of C=C(CON=C(C)c1cccc(C)n1)CON=C(C)c1nc(C)c(C)s1 and report it.
4.41^[b]

Look up logP of COCc1nc(/C(N)=N/OCCCCO/N=C(\N)c2nc(COC)c(C)c(COC)n2)nc(COC)c1C and report it.
1.75^[b]

Look up logP of CC(=NOCCCCON=C(C)c1cccc(C)n1)c1cccc(C)n1 and report it.
3,16^[b]

Look up logP of C=C(CON=C(C)c1cccc(C)n1)CON=C(N)c1nc(C)cc(OC)n1 and report it.
2.11^[b]

Look up logP of CC(=NOCC(C)(C)CON=C(C)c1cccc(C)n1)c1cccc(C)n1 (mixture of isomers) [Compound 250] and report it.
4.74^[b]

Look up logP of C=C(CON=C(N)c1cc(Cl)cc(Cl)c1)CON=C(C)c1cccc(C)n1 and report it.
4.32^[b]

Look up logP of Cc1nc(/C(N)=N/OCO/N=C(\N)c2nc(C)c(Cl)c(C)n2)nc(C)c1Cl and report it.
2.36^[b]

Look up logP of Cc1nc(/C(N)=N/OCCCCO/N=C(\N)c2nc(C)c3c(n2)CCCC3)nc2c1CCCC2 and report it.
2.58^[b]

Look up logP of C=C(CON=C(C)c1cccc(C)n1)CON=C(C)c1cccc(C)n1 and report it.
3.33^[b]

Look up logP of CC(=NOCC1OC(C)(C)OC1CON=C(C)c1cccc(C)n1)c1cccc(C)n1 (stereo not drawn) and report it.
3.09^[b]

Look up logP of C=C(CON=C(C)c1cccc(C)n1)CON=C(C)c1nc2ccccc2s1 and report it.
4.79^[b]

====

Quick reference: logP of the listed items.
Test: logP determination by HPLC on a reversed-phase column (C 18), EEC Directive 79/831 Annex V.A8
Assay type: physicochemical
Conditions: method marked [c] in Table 1
Method: The stated logP values were determined in accordance with EEC Directive 79/831 Annex V.A8 by HPLC (high performance liquid chromatography) on a reversed-phase column (C 18). Temperature: 43° C.

Example results:
- MOLECULE: "CC(=NOCc1cccc(CON=C(C)c2cc(C)cc(C)n2)n1)c1cc(C)cc(C)n1 [compound 742]"
  MEASURED QUANTITY: "logP"
  OBSERVED VALUE: "4.96^[c]"
- MOLECULE: "CC(=NOCC(C)CON=C(C)c1ccc(C)c(C)n1)c1cc(C)cc(C)n1 (racemic) [Compound 694]"
  MEASURED QUANTITY: "logP"
  OBSERVED VALUE: "6.17^[c]"
- MOLECULE: "CC(=NOCC(O)CON=C(C)c1cc(C)cc(C)n1)c1cc(C)cc(C)n1 (stereo not shown) [compound 560]"
  MEASURED QUANTITY: "logP"
  OBSERVED VALUE: "3.68^[c]"

Note: attention shifts to another entry.
Look up logP of CCCc1nc(C(C)=NOCC(C)CON=C(C)c2ccc(C)c(CCC)n2)ccc1C (stereo not shown) [Compound 550] and report it.
7.36^[c]

====

Quick reference: logP of the listed items.
Assay: logP determination by HPLC on a reversed-phase column (C 18), EEC Directive 79/831 Annex V.A8
Format: physicochemical
Details: method marker [a] (footnote not shown); isomer A / isomer B / isomer mixture as noted in the cell

- COMPOUND: "CC(=NOCC(=O)ON=C(C)c1cccc(C)n1)c1cccc(C)n1 [compound 158]"
  MEASURED QUANTITY: "logP"
  OBSERVED VALUE: "2.50^[a]"

Look up logP of CC(=NOCCCC(=O)ON=C(C)c1cccc(C)n1)c1cccc(C)n1 [compound 171] and report it.
2.44^[a]

Look up logP of Cc1cccnc1C(=NOCC(C)CON=C(c1ncccc1C)C(C)C)C(C)C (mixture of isomers) [compound 103] and report it.
4.28^[a]

Look up logP of CCc1ccnc(C(C)=NOCCCON=C(C)c2cc(CC)ccn2)c1 [Compound 136] and report it.
2.98^[a]

Look up logP of CC(=NOCC(C)CON=C(C)c1ccc(C)nc1)c1ccc(C)nc1 (mixture of isomers) [compound 233] and report it.
1.50^[a]

Look up logP of CCOC(=O)C(=NOCCCON=C(C(=O)OCC)c1cccc(C)n1)c1cccc(C)n1 [compound 76] and report it.
4.31^[a]

Look up logP of CC(=NOCC(C)CON=C(C)c1sc(C)nc1C)c1sc(C)nc1C (mixture of isomers) [compound 121] and report it.
4.02^[a]

Look up logP of CCc1cccc(C(C)=NOCCCON=C(C)c2cccc(CC)n2)n1 [Compound 180] and report it.
5.43^[a]

Look up logP of CC(=NOCCCON=C(C)c1cccc(C)n1)c1cccc(C)n1 [Compound 14] and report it.
2.66^[a]

Look up logP of CC(=NOCCCON=C(C)c1csc(Cl)n1)c1csc(Cl)n1 (mixture of isomers) [compound 232] and report it.
4.69^[a]

Look up logP of CCC(=NOCCCON=C(CC)c1ncccc1C)c1ncccc1C (single isomer, unassigned) [compound 95] and report it.
3.11^[a] (isomer A)

Look up logP of CC(=NOCC(C)CON=C(C)c1cc(C)cc(C)n1)c1cc(C)cc(C)n1 (centres unmarked) [Compound 225] and report it.
2.11^[a]

Look up logP of CCCc1cccc(C(C)=NOCCCON=C(C)c2cccc(CCC)n2)n1 [Compound 174] and report it.
6.78^[a]

Look up logP of CC(=NOCC1(CON=C(C)c2cccc(C)n2)CO1)c1cccc(C)n1 (centres unmarked) [compound 220] and report it.
2.24^[a]

Look up logP of CCc1ccnc(C(C)=NOCC(C)CON=C(C)c2cc(CC)ccn2)c1 (centres unmarked) [compound 105] and report it.
3.62^[a]

Look up logP of CC(=NOCCCON=C(C)c1ccc(C)nc1)c1ccc(C)nc1 [compound 228] and report it.
1.27^[a]

Look up logP of Cc1cccc(C(=NOCCCON=C(c2cccc(C)n2)C(C)C)C(C)C)n1 (single isomer, unassigned) [compound 89] and report it.
4.45^[a] (isomer A)

====

Quick reference: logP of the listed items.
Test: logP determination by HPLC on a reversed-phase column (C 18), EEC Directive 79/831 Annex V.A8
Type: physicochemical
Settings: method marked [c] in Table 1

- COMPOUND: "CC(=NOCc1cccc(CON=C(C)c2ccc(C)c(C)n2)n1)c1ccc(C)c(C)n1 [compound 741]"
  OBSERVED VALUE: "5.08^[c]"
- COMPOUND: "CC(=NOCC(CON=C(C)c1nc(C)ccc1C)Cc1ccccc1)c1cccc(C)n1 (centres unmarked) [compound 591]"
  OBSERVED VALUE: "5.07^[c]"
- COMPOUND: "CC(=NOCC(CON=C(C)c1nc(C)ccc1C)c1ccccc1)c1nc(C)ccc1C (single isomer, unassigned) [compound 754]"
  OBSERVED VALUE: "4.59^[c]"

Look up logP of C=C(CON=C(C)c1cccc(-c2ccccc2)n1)CON=C(C)c1cccc(-c2ccccc2)n1 [compound 567] and report it.
7.27

Look up logP of CC(=NOCC1(CON=C(C)c2cc(C)cc(C)n2)CCCC1)c1cc(C)cc(C)n1 [Compound 589] and report it.
7.36^[c]

Look up logP of CC(=NOCC(CON=C(C)c1ccc(C)c(C)n1)Cc1ccccc1)c1ccc(C)c(C)n1 (centres unmarked) [Compound 581] and report it.
7.05^[c]

Look up logP of CC(=NOCC(CON=C(C)c1cc(C)cc(C)n1)C(C)C)c1cc(C)cc(C)n1 (centres unmarked) [Compound 682] and report it.
7.09^[c]

Look up logP of CC(=NOCC(C)CON=C(C)c1cccc(-c2ccccc2)n1)c1cccc(-c2ccccc2)n1 (centres unmarked) [compound 563] and report it.
7.36^[c]
